- assay-system: PI3K-γ (Homo sapiens, UniProt P48736)
- Sequence (P48736 whole entry, species assumed): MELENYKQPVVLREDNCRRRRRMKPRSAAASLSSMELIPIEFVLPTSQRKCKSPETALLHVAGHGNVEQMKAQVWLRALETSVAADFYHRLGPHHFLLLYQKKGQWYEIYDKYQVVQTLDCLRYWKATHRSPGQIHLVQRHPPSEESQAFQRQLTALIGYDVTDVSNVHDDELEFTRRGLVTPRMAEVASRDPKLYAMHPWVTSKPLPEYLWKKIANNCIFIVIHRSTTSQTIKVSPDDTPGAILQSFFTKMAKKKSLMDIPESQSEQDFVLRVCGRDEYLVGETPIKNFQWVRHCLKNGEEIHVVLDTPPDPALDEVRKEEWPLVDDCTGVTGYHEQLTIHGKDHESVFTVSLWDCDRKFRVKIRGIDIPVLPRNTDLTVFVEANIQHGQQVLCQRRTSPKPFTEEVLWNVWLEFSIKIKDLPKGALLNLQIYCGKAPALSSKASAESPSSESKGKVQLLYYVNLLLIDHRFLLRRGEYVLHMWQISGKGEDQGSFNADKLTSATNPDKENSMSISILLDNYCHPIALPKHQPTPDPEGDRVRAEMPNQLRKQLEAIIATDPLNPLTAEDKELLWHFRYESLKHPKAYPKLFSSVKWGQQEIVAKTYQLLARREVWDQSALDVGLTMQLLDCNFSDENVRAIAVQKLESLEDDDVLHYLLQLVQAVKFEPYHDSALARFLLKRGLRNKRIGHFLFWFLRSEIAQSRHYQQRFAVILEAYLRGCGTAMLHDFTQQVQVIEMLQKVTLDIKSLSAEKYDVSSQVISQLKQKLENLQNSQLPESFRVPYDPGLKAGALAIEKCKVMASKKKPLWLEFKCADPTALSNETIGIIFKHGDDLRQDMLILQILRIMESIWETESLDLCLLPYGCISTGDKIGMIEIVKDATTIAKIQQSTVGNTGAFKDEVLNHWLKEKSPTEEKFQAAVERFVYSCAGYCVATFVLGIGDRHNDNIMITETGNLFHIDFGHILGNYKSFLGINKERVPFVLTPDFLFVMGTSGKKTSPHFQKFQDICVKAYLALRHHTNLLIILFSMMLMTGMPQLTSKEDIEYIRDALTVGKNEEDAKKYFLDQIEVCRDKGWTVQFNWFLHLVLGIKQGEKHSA
- procedure-details: PI3K-gamma fluorescence polarization assay
- run-conditions: read-out: IC50 PI3Kγ; listed as 709
readout-label: pIC50
Give bare numbers, as −log10 of the molar value.

Query: What measured pIC50 goes with N#Cc1ccc(NC(=O)Nc2ccc(-c3nc(N4CCOCC4)nc(N4CCC5(CC4)OCCO5)n3)cc2)cc1 [Example 134] ?
Result: 6.74

----------
- assay-system: UniProt P42345
- Sequence (P42345 1360-2549 limits assumed): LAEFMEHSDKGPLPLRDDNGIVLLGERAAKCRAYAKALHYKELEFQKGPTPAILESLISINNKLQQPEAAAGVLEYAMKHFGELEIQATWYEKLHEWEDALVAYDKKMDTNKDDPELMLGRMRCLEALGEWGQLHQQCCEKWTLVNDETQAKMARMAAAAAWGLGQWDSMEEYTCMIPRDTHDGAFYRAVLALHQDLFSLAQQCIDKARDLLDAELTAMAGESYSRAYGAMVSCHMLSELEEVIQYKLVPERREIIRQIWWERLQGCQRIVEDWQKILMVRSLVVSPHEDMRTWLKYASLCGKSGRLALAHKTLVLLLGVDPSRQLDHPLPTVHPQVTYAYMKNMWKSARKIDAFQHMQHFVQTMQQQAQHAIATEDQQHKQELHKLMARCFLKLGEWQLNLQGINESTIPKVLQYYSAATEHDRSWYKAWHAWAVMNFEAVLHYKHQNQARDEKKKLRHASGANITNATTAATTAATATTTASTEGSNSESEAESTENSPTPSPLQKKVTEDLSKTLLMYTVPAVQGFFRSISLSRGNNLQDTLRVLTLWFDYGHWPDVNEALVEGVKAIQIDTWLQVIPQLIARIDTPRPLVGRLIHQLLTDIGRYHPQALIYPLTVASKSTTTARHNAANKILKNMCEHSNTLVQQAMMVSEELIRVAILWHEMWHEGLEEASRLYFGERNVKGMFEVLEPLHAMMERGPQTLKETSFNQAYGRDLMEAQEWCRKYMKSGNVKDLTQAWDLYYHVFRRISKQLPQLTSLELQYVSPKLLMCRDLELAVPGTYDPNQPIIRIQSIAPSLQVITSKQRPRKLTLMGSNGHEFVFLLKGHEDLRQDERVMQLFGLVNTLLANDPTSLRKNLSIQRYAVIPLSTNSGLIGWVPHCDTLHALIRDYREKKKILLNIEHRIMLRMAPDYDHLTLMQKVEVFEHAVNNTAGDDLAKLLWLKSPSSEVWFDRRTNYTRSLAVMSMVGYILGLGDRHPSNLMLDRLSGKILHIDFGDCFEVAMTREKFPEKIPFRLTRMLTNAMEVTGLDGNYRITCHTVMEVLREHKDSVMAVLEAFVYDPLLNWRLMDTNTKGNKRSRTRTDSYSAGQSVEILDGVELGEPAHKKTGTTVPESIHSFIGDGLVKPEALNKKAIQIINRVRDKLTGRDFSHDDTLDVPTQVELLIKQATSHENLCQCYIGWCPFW
- procedure-details: mTOR kinase assay (DELFIA format, purified enzyme)
- Format: biochemical
- run-conditions: read-out: IC50 mTOR
For each of the compounds below, state its IC50.
Give bare numbers, in nM.

Recorded IC50, per entry:
CC(C)N1CCN(C(=O)c2ccc(NC(=O)Nc3ccc(-c4nc(C5CCOCC5)nc(N5CCOCC5)n4)cc3)cc2)CC1 [Example 523] ... 0.43
CNC(=O)Nc1ccc(-c2nc(N3CCOCC3)nc(N3CCOCC3)n2)cc1 [Example 476] ... 5
C[C@@H]1COCCN1c1nc(-c2ccc(NC(=O)Nc3ccc(N4CCC(N(C)C)CC4)cc3)cc2)nc(N2CCOC[C@H]2C)n1 [Example 449] ... 1.9

// next entry
Query: Which measured IC50 value corresponds to O=C(Nc1ccncc1)Nc1ccc(-c2nc(N3CCOCC3)nc(N3C4COCC3[C@H](O)C4)n2)cc1 (stereo partly shown) [Example 820] ?
Result: 0.515
